# experimental system: SARS-COV-2 RBD extracellular domain expressed with a C-terminal mouse IgG2a (SARS-CoV-2)
# assay info: SPR Biacore, mAb captured via anti-hFc, 25 C
The binders listed here are annotated with their pKd.
// returns pKd (minus log10 of molar concentration), number only

Some solved cases for reference:
mAb10971 (antibody, V domains shown) VH: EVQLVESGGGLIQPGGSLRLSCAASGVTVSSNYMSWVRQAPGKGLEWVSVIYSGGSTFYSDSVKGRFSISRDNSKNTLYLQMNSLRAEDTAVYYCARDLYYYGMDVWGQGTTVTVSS VL: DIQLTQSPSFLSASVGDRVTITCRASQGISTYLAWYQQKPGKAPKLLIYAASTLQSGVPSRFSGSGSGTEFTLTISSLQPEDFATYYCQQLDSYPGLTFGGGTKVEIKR; 10.53
mAb10989 (antibody, V domains shown) VH: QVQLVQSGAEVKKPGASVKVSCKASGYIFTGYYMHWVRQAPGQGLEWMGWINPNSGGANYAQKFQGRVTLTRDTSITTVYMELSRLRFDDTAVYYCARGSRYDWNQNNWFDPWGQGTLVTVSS VL: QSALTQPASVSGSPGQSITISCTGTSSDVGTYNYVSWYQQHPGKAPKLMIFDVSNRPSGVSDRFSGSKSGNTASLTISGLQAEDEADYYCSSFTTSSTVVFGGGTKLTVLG; 11.05

From here, focus on the item given below.
Lab note: mAb10964 (antibody, V domains shown) VH: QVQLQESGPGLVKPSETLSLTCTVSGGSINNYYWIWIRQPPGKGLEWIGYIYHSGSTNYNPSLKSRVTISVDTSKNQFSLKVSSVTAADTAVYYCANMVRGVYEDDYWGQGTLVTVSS VL: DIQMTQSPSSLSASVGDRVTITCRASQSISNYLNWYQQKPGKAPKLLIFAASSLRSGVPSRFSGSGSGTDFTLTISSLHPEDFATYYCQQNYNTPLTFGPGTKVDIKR gave pKd of 11.40

Entry source: patent US20240043504A1
